meta.source: patent US11472766B2

# PROCEDURE SUMMARY: Lipid nanoparticle size by dynamic light scattering (Malvern Zetasizer Nano ZS)
# Format: physicochemical
# MEASUREMENT CONDITIONS: LNP: cationic lipid/DSPC/cholesterol/PEG-lipid 50:10:38.5:1.5, hEPO mRNA; Table 3
Please note: polydispersity exactly at 0.1 is Condition not met. Only values below 0.1 get Condition met.

compound="CCCCCCCCC(CCCCCC)CC(=O)NCCCCCN(CCCCCNC(=O)CC(CCCCCC)CCCCCCCC)CCN(CCO)C1CCCCC1 (stereo not drawn)" category_label="Condition not met"

I wonder whether CCCCCCC(CCCCCC)CC(=O)NCCCCCN(CCCCCOC(=O)CC(CCCCCC)CCCCCC)CCN(CCO)C1CCCCC1 has polydispersity below 0.1. Can you tell? Condition met

I wonder whether CCCCCCCCC(CCCCCCCC)COC(=O)CCCCCN(CCCCCC(=O)OCC(CCCCCCCC)CCCCCCCC)CCN(CCO)C1CCC1 has polydispersity below 0.1. Can you tell? Condition met

I wonder whether CCCCCCCCC(CCCCCC)COC(=O)CCCCCC(CCCCCC(=O)OCC(CCCCCC)CCCCCCCC)CN(CCO)C1CCC1 (stereo not drawn) has polydispersity below 0.1. Can you tell? Condition not met

----------
// reported Encapsulation Efficiency for each item listed
# PROCEDURE SUMMARY: Encapsulation efficiency of lipid nanoparticles (Quant-it Ribogreen RNA quantification assay)
# Format: physicochemical
# MEASUREMENT CONDITIONS: LNP encapsulating hEPO mRNA; Table 3
Could you write the number and then its unit?

// worked examples, Encapsulation Efficiency included
compound=CCCCCCCCCCC(CCCCCCCCCC)COC(=O)CCCCCN(CCCCCC(=O)OCC(CCCCCCCCCC)CCCCCCCCCC)CCN(CCO)C1CCC1 property_name="Encapsulation Efficiency" assay_result=95.70%
compound="CCCCCCCCC(CCCCCC)COC(=O)CCCCCN(CCCCCC(=O)OCC(CCCCCC)CCCCCCCC)CCN(C1CCCCC1)C1CCC(O)CC1 (centres unmarked)" property_name="Encapsulation Efficiency" assay_result=100.2%
compound="CCCCCCCCC(CCCCCC)COC(=O)CCCCCN(CCCCCC(=O)OCC(CCCCCC)CCCCCCCC)CCN(CCCC)C1CCC(O)CC1 (centres unmarked)" property_name="Encapsulation Efficiency" assay_result=90.7%
compound=CCCCCCCC(CCCCCCC)COC(=O)CCCCCN(CCCCCC(=O)OCC(CCCCCCC)CCCCCCC)CCN(CCO)C1CCC1 property_name="Encapsulation Efficiency" assay_result=94.1%
compound="CCCCCCCCC(CCCCCCCC)COC(=O)CCCCCN(CCCCCC(=O)OCC(CCCCCCCC)CCCCCCCC)CCN(CCO)C1CC(c2ccccc2)C1 (centres unmarked)" property_name="Encapsulation Efficiency" assay_result=91.71%

Param item = CCCCCCCCC(CCCCCC)C(=O)OCCCCCCN(CCCCCCOC(=O)C(CCCCCC)CCCCCCCC)CCN(CCO)C1CCC1 (centres unmarked) ; retrieve measured Encapsulation Efficiency. 96.6%

Param item = CCCCCCCCC(CCCCCC)CNC(=O)CCCCCN(CCCCCC(=O)OCC(CCCCCC)CCCCCCCC)CCN(CCO)C1CCCCCC1 (centres unmarked) ; retrieve measured Encapsulation Efficiency. 86.10%

Param item = CCCCCCCCC(CCCCCC)COC(=O)NCCCCN(CCCCNC(=O)OCC(CCCCCC)CCCCCCCC)CCN(CCO)C1CCCC1 (centres unmarked) ; retrieve measured Encapsulation Efficiency. 95.6%

----------
# PROCEDURE SUMMARY: Lipid nanoparticle size by dynamic light scattering (Malvern Zetasizer Nano ZS)
# Assay type: physicochemical
# MEASUREMENT CONDITIONS: LNP: cationic lipid/DSPC/cholesterol/PEG-lipid 50:10:38.5:1.5, hEPO mRNA; Table 3
PROPERTY NAME: size nm (nm)
Lab book: enter the figure in nm, no units written.

// worked examples, size nm included
molecule="CCCCCCCCC(CCCCCC)COC(=O)CCCCCN(CCCCCC(=O)OCC(CCCCCC)CCCCCCCC)CCN(C)C1CC(O)C1 (stereo not shown)" readout_units=nm assay_result=93.24
molecule=CCCCCCCCCCCOC(=O)CCCCCN(CCCCCC(=O)NCC(CCCCCCCC)CCCCCCCC)CCN(CCO)C1CCCCC1 readout_units=nm assay_result=83.84

Param item = CCCCCCCCC(CCCCCC)CNC(=O)CCCCCN(CCCCCC(=O)NCC(CCCCCC)CCCCCCCC)CCN(CCC)C1CCC(O)CC1 (stereo not shown) ; retrieve measured size nm. 104.1

Param item = CCCCCCCCC(CCCCCC)COC(=O)CCCCCN(CCCCCC(=O)OCC(CCCCCC)CCCCCCCC)CCN(CCCCCCCCO)C1CCC1 (stereo not shown) ; retrieve measured size nm. 71.64

----------
# PROCEDURE SUMMARY: Lipid nanoparticle size by dynamic light scattering (Malvern Zetasizer Nano ZS)
# Assay type: physicochemical
# MEASUREMENT CONDITIONS: LNP: cationic lipid/DSPC/cholesterol/PEG-lipid 50:10:38.5:1.5, hEPO mRNA; Table 3
PROPERTY NAME: polydispersity

// worked examples, polydispersity included
compound=CCCCCCCCC(CCCCCCCC)COC(=O)COCCOCCN(CCOCCOCC(=O)OCC(CCCCCCCC)CCCCCCCC)CCN(CCO)C1CCC1 property_name=polydispersity assay_result=0.054
compound="CCCCCCCCC(CCCCCCCC)COC(=O)CCCCCN(CCCCCC(=O)OCC(CCCCCCCC)CCCCCCCC)CCN(C)C1CCC(O)CC1 (stereo not drawn)" property_name=polydispersity assay_result=0.027

Param item = CCCCCCCCC(CCCCCC)COC(=O)CCCCCN(CCCCCC(=O)OCC(CCCCCC)CCCCCCCC)C(=O)CN(CCO)C1CCC1 (stereo not drawn) ; retrieve measured polydispersity. 0.109

----------
# PROCEDURE SUMMARY: Lipid nanoparticle size by dynamic light scattering (Malvern Zetasizer Nano ZS)
# Assay type: physicochemical
# MEASUREMENT CONDITIONS: LNP: cationic lipid/DSPC/cholesterol/PEG-lipid 50:10:38.5:1.5, hEPO mRNA; Table 3
// reported polydispersity for each item listed
Lab note: record the figure alone, no unit after it.

molecule=CCCCCCCCCCCOC(=O)CCCCCN(CCCCCC(=O)OCC(CCCCCCCC)CCCCCCCC)CCN(CCO)C1CCCCCC1 property_name=polydispersity assay_result=0.083
molecule="CCCCCCCCC(CCCCCCCC)COC(=O)CCCCCN(CCCCCC(=O)OCC(CCCCCCCC)CCCCCCCC)CCN(CCO)C1CCCOC1 (stereo not shown)" property_name=polydispersity assay_result=0.066

Let us examine a further case.
Param item = CCCCCCCCC(CCCCCC)C(C)OC(=O)CCCCCN(CCCCCC(=O)OC(C)C(CCCCCC)CCCCCCCC)CCN(CCO)C1CCC1 (stereo not shown) ; retrieve measured polydispersity. 0.167

----------
# PROCEDURE SUMMARY: Encapsulation efficiency of lipid nanoparticles (Quant-it Ribogreen RNA quantification assay)
# Assay type: physicochemical
# MEASUREMENT CONDITIONS: LNP encapsulating hEPO mRNA; Table 3
// reported Encapsulation Efficiency for each item listed
Lab book: enter the figure in %, no units written.

// worked examples, Encapsulation Efficiency included
molecule="CCCCCCCCC(CCCCCC)CC(=O)NCCCCCN(CCCCCNC(=O)CC(CCCCCC)CCCCCCCC)CCN(CCO)C1CCC1 (stereo not shown)" property_name="Encapsulation Efficiency" readout_units=% assay_result=93.3
molecule=CCCCCCCCC(CCCCCCCC)CNC(=O)CCCCCN(CCCCCC(=O)NCC(CCCCCCCC)CCCCCCCC)CCN(CCO)C1CCCCC1 property_name="Encapsulation Efficiency" readout_units=% assay_result=95.29
molecule="CCCCCCCCC(CCCCCC)C(CC)OC(=O)CCCCCN(CCCCCC(=O)OC(CC)C(CCCCCC)CCCCCCCC)CCN(CCO)C1CCC1 (stereo not shown)" property_name="Encapsulation Efficiency" readout_units=% assay_result=98.8

Param item = CCCCCCC(CCCCCC)CNC(=O)CCCCCN(CCCCCC(=O)OCC(CCCCCC)CCCCCC)CCN(CCO)C1CCCC1 ; retrieve measured Encapsulation Efficiency. 83.4

Param item = CCCCCCCCCCCOC(=O)CCCCCN(CCCCCC(=O)OCC(CCCCCCCC)CCCCCCCC)CCN(CCO)C1CCC1 ; retrieve measured Encapsulation Efficiency. 94.6

Param item = CCCCCCCCC(CCCCCC)COC(=O)CCCCCN(CCCCCC(=O)OCC(CCCCCC)CCCCCCCC)CCN(CCCO)C1CCC1 (stereo not shown) ; retrieve measured Encapsulation Efficiency. 96.5

Param item = CCCCCCCCC(CCCCCC)COC(=O)CCCCCC(CCCCCC(=O)OCC(CCCCCC)CCCCCCCC)CN(CCO)C1CCC1 (stereo not shown) ; retrieve measured Encapsulation Efficiency. 89.8

----------
# PROCEDURE SUMMARY: Lipid nanoparticle size by dynamic light scattering (Malvern Zetasizer Nano ZS)
# Assay type: physicochemical
# MEASUREMENT CONDITIONS: LNP: cationic lipid/DSPC/cholesterol/PEG-lipid 50:10:38.5:1.5, hEPO mRNA; Table 3
// reported polydispersity for each item listed
Lab note: record the figure alone, no unit after it.

compound="CCCCCCCCC(CCCCCC)CNC(=O)CCCCCN(CCCCCC(=O)NCC(CCCCCC)CCCCCCCC)CCN(CCO)C1CC1 (centres unmarked) [Compound 119]" assay_result=0.06
compound="CCCCCCCCC(CCCCCCCC)COC(=O)CCOCCN(CCOCCC(=O)OCC(CCCCCCCC)CCCCCCCC)CCN(CCO)C1CCC1 [Compound 102]" assay_result=0.004
compound="CCCCCCCCC(CCCCCC)COC(=O)CCCCCN(CCCCCC(=O)OCC(CCCCCC)CCCCCCCC)C1CCN(CCO)CC1 (centres unmarked) [Compound 98]" assay_result=0.105
compound="CCCCCCCCCCCOC(=O)CCCCCN(CCCCCC(=O)OCC(CCCCCCCC)CCCCCCCC)CCN(CCO)C1CCCC1 [Compound 82]" assay_result=0.025
compound="CCCCCCCCC(CCCCCCCC)COC(=O)CCCCCN(CCCCCC(=O)OCC(CCCCCCCC)CCCCCCCC)CCN(CCC)C1CCC(O)CC1 (centres unmarked) [Compound 70]" assay_result=0.034
compound="CCCCCCCCC(CCCCCC)COC(=O)CCCCCN(CCCCCC(=O)OCC(CCCCCC)CCCCCCCC)CCN(CC(O)CCCC)C1CCC1 (centres unmarked) [Compound 33]" assay_result=0.091
compound="CCCCCCCCC(CCCCCC)COC(=O)CCCCCN(CCCCCC(=O)OCC(CCCCCC)CCCCCCCC)C(=O)CCCN(CCO)C1CCC1 (centres unmarked) [Compound 13]" assay_result=0.095
compound="CCCCCCCCC(CCCCCC)COC(=O)CCCCCN(CCCCCC(=O)OCC(CCCCCC)CCCCCCCC)CCN(CCO)C1CCN(C)CC1 (centres unmarked) [Compound 94]" assay_result=0.298

Param item = CCCCCCCCC(CCCCCC)COC(=O)CCCCCN(CCCCCC(=O)OCC(CCCCCC)CCCCCCCC)CCN(CCO)C1CCC(O)CC1 (centres unmarked) [Compound 21] ; retrieve measured polydispersity. 0.077

Param item = CCCCC/C=C\CCCC(CCC/C=C\CCCCC)OC(=O)CCCCCN(CCCCCC(=O)OCCC/C=C/CCCCC)CCN(CCO)C1CCC1 [Compound 63] ; retrieve measured polydispersity. 0.088

Param item = CCCCC/C=C\CCCOC(=O)CCCCCN(CCCCCC(=O)OCCC/C=C\CCCCC)CCN(CCO)C1CCC1 [Compound 62] ; retrieve measured polydispersity. 0.156

Param item = CCCCCCCCCCCOC(=O)CCCCCN(CCCCCC(=O)NCC(CCCCCCCC)CCCCCCCC)CCN(CCO)C1CCCCC1 [Compound 148] ; retrieve measured polydispersity. 0.046

Param item = CCCCCCCCC(CCCCCCCC)COC(=O)CCCCCN(CCCCCC(=O)OCC(CCCCCCCC)CCCCCCCC)CCN(CCC)C1CCCC1O (centres unmarked) [Compound 68] ; retrieve measured polydispersity. 0.052

Param item = CCCCCCCCC(CCCCCCCC)COC(=O)CCCCCN(CCCCCC(=O)OCC(CCCCCCCC)CCCCCCCC)CCN(CCO)C1CCOC1 (centres unmarked) [Compound 87] ; retrieve measured polydispersity. 0.037

Param item = CCCCCCCCCCCCC(CCCCCC)COC(=O)CCCN(CCCC(=O)OCC(CCCCCC)CCCCCCCCCCCC)CCN(CCO)C1CCC1 (centres unmarked) [Compound 47] ; retrieve measured polydispersity. 0.103
